Hello, the source for this data is patent US9708336B2, in case you need it.

Listed below: pIC50 values for each entry.
Tested on: IMP-1 (Serratia marcescens, UniProt P52699)
Sequence (P52699 whole entry, looked up): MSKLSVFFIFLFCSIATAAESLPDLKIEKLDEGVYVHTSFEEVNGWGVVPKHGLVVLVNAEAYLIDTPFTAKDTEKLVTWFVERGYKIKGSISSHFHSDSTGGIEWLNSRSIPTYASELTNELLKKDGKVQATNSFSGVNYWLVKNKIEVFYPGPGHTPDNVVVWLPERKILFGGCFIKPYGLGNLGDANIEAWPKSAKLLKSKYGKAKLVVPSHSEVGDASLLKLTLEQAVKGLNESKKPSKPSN
Test method notes: biochemical
Format: biochemical
Experimental context: IMP-1 enzyme, CCF2-FA fluorescence assay; read-out: IMP-1 IC50
// pIC50: -log10(molar conc.)

Examples with answers:
CCOCc1ccc(-c2cccc(S(N)(=O)=O)c2-c2nnn[nH]2)cc1: 7.43
NS(=O)(=O)c1c(C(F)(F)F)ccc(-c2ccc(CO)cc2)c1-c1nn[nH]n1: 8.93
NS(=O)(=O)c1nccc(N2CCC(c3nnc4ccccn34)CC2)c1-c1nnn[nH]1: 6.47

Now look at this one.
Prompt: Can you share its pIC50? I mean this compound: Cc1nc2ccccc2n1Cc1ccc(-c2cccc(S(N)(=O)=O)c2-c2nnn[nH]2)cc1
Response: 7.30
